- Test system: L1210
- Protocol Details: cells
- Type: cell-based, mouse
- Experimental Setup: Table 2
Readout: IC50

INSERT INTO measurements (compound, readout, observed_result) VALUES
  ('CC[C@]1(NC(=O)c2cccc(C(F)(F)F)c2)C[C@H]2CN(CCc3c([nH]c4ccccc34)[C@@](C(=O)OC)(c3cc4c(cc3OC)N(C)[C@H]3[C@@](O)(C(=O)OC)[C@H](OC(C)=O)[C@]5(CC)C=CCN6CC[C@]43[C@@H]65)C2)C1 [Compound 40]', 'IC50', '6.2 nM'),
  ('CCC1(NC(=O)c2cccc(OC(F)(F)F)c2)CC2CN(CCc3c([nH]c4ccccc34)C(C(=O)OC)(c3cc4c(cc3OC)N(C)C3C(O)(C(=O)OC)C(OC(C)=O)C5(CC)C=CCN6CCC43C65)C2)C1 (centres unmarked) [Compound 79]', 'IC50', '4.8 nM'),
  ('CC[C@]1(NC(=O)c2ccc(OC)cc2F)C[C@H]2CN(CCc3c([nH]c4ccccc34)[C@@](C(=O)OC)(c3cc4c(cc3OC)N(C)[C@H]3[C@@](O)(C(=O)OC)[C@H](OC(C)=O)[C@]5(CC)C=CCN6CC[C@]43[C@@H]65)C2)C1 [Compound 91]', 'IC50', '6.2 nM'),
  ('CC[C@]1(NC(=O)c2ccc(C#N)cc2)C[C@H]2CN(CCc3c([nH]c4ccccc34)[C@@](C(=O)OC)(c3cc4c(cc3OC)N(C)[C@H]3[C@@](O)(C(=O)OC)[C@H](OC(C)=O)[C@]5(CC)C=CCN6CC[C@]43[C@@H]65)C2)C1 [Compound 54]', 'IC50', '4.4 nM'),
  ('CCc1ccc(C(=O)NC2(CC)CC3CN(CCc4c([nH]c5ccccc45)C(C(=O)OC)(c4cc5c(cc4OC)N(C)C4C(O)(C(=O)OC)C(OC(C)=O)C6(CC)C=CCN7CCC54C76)C3)C2)cc1 (centres unmarked) [Compound 30]', 'IC50', '0.65 nM'),
  ('CCC1(NC(=O)c2ccc(SC)cc2)CC2CN(CCc3c([nH]c4ccccc34)C(C(=O)OC)(c3cc4c(cc3OC)N(C)C3C(O)(C(=O)OC)C(OC(C)=O)C5(CC)C=CCN6CCC43C65)C2)C1 (centres unmarked) [Compound 84]', 'IC50', '0.4 nM'),
  ('CC[C@]1(NC(=O)c2cc(OC)c(OC)c(OC)c2)C[C@H]2CN(CCc3c([nH]c4ccccc34)[C@@](C(=O)OC)(c3cc4c(cc3OC)N(C)[C@H]3[C@@](O)(C(=O)OC)[C@H](OC(C)=O)[C@]5(CC)C=CCN6CC[C@]43[C@@H]65)C2)C1 [Compound 71]', 'IC50', '0.09 nM'),
  ('CC[C@]1(NC(=O)c2ccc(OC(F)(F)F)c(OC)c2)C[C@H]2CN(CCc3c([nH]c4ccccc34)[C@@](C(=O)OC)(c3cc4c(cc3OC)N(C)[C@H]3[C@@](O)(C(=O)OC)[C@H](OC(C)=O)[C@]5(CC)C=CCN6CC[C@]43[C@@H]65)C2)C1 [Compound 83]', 'IC50', '1.3 nM'),
  ('CC[C@]1(NC(=O)c2ccc(N)cc2)C[C@H]2CN(CCc3c([nH]c4ccccc34)[C@@](C(=O)OC)(c3cc4c(cc3OC)N(C)[C@H]3[C@@](O)(C(=O)OC)[C@H](OC(C)=O)[C@]5(CC)C=CCN6CC[C@]43[C@@H]65)C2)C1 [Compound 57]', 'IC50', '0.4 nM'),
  ('CCC1(NC(=O)c2ccc(OC(F)(F)F)cc2)CC2CN(CCc3c([nH]c4ccccc34)C(C(=O)OC)(c3cc4c(cc3OC)N(C)C3C(O)(C(=O)OC)C(OC(C)=O)C5(CC)C=CCN6CCC43C65)C2)C1 (centres unmarked) [Compound 78]', 'IC50', '5.9 nM'),
  ('CC[C@]1(NC(=O)c2ccc(NC)cc2)C[C@H]2CN(CCc3c([nH]c4ccccc34)[C@@](C(=O)OC)(c3cc4c(cc3OC)N(C)[C@H]3[C@@](O)(C(=O)OC)[C@H](OC(C)=O)[C@]5(CC)C=CCN6CC[C@]43[C@@H]65)C2)C1 [Compound 62]', 'IC50', '0.38 nM');
